- System: biotinyl-Val-oxazolone
- assay-info: self-aminoacylation, catalytic enhancement (BVO) (fold over background); higher = more active; k-Seq, kA / k0A0; sequences stand for … in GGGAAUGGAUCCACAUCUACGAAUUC…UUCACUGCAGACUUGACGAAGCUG
This sample holds only a part of the variants without activity.
Decide by self-aminoacylation: equal to or exceeding 2 means satisfied, less means not satisfied.

AUUCUCCUGGUCAUCGAGUGA [Fam2.1 aminoacylation ribozyme variant]    satisfied
GUACUUCAAACAAUCGCUCUG [Fam1A.1 aminoacylation ribozyme variant]    not satisfied
CGACUUCAAACAAUGGGUCUG [Fam1A.1 aminoacylation ribozyme variant]    not satisfied
AUUCACCAAGGUCAUCGGGUU [Fam2.2 aminoacylation ribozyme variant]    satisfied
AUUACCCUGGUCGCCGAGUGA [Fam2.1 aminoacylation ribozyme variant]    satisfied

State whether the measured self-aminoacylation reaches 2, counting equality as reaching it, for CCACUCUUAAAGCAAUCGGUC [Fam1B.1 aminoacylation ribozyme variant] not satisfied

State whether the measured self-aminoacylation reaches 2, counting equality as reaching it, for AUUACCCUGGUCAUCCAUUGA [Fam2.1 aminoacylation ribozyme variant] not satisfied

State whether the measured self-aminoacylation reaches 2, counting equality as reaching it, for CUCCUUCAAACAAUCGCUCUG [Fam1A.1 aminoacylation ribozyme variant] not satisfied

State whether the measured self-aminoacylation reaches 2, counting equality as reaching it, for AUUACCCUAGUCAUCGAGUGA [Fam2.1 aminoacylation ribozyme variant] satisfied

State whether the measured self-aminoacylation reaches 2, counting equality as reaching it, for AAGUUAGCUAAUAGUCGCAUG [Fam3.1 aminoacylation ribozyme variant] not satisfied

State whether the measured self-aminoacylation reaches 2, counting equality as reaching it, for CCACAUUUCAAGCUAUCGGUC [Fam1B.1 aminoacylation ribozyme variant] not satisfied

State whether the measured self-aminoacylation reaches 2, counting equality as reaching it, for AUACUGCAAACAAUCGGUCUG [Fam1A.1 aminoacylation ribozyme variant] not satisfied

State whether the measured self-aminoacylation reaches 2, counting equality as reaching it, for AUUGACCUACGUCAUCGGGUG [Fam2.2 aminoacylation ribozyme variant] satisfied

State whether the measured self-aminoacylation reaches 2, counting equality as reaching it, for CUACUUCAAACAAUCGAUCUG [Fam1A.1 aminoacylation ribozyme variant] not satisfied

State whether the measured self-aminoacylation reaches 2, counting equality as reaching it, for UUUACCCUGGUCAUCGAGCGA [Fam2.1 aminoacylation ribozyme variant] satisfied

###

- System: biotinyl-Phe-oxazolone
- assay-info: self-aminoacylation, catalytic enhancement (BFO) (fold over background); higher = more active; k-Seq, kA / k0A0; sequences stand for … in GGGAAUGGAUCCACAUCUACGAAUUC…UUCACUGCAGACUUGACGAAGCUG
This sample holds only a part of the variants without activity.
Decide by self-aminoacylation: equal to or exceeding 10 means satisfied, less means not satisfied.

Recorded results for 2 sequences are shown here.
GUUACCCUGGUCAUCGAGUAA [Fam2.1 aminoacylation ribozyme variant]    satisfied
CUACAUCAAAGAAUCGGUCUG [Fam1A.1 aminoacylation ribozyme variant]    not satisfied

State whether the measured self-aminoacylation reaches 10, counting equality as reaching it, for GAGUUUGCUAUUAGUCGCAAG [Fam3.1 aminoacylation ribozyme variant] not satisfied

State whether the measured self-aminoacylation reaches 10, counting equality as reaching it, for AUUACCCUGGUCAGCGAGUAA [Fam2.1 aminoacylation ribozyme variant] not satisfied
